Quick reference for melting point among some compounds
Number in °C, nothing else.

Solved entries (count: 5):
CC(Sc1ccc(Cl)cc1Cl)C(=O)NCc1ccc2c(c1)OCO2 (stereo not shown) : 137
CC(Oc1ccc(Cl)cc1Cl)C(=O)NCc1cccc(Cl)c1 (stereo not shown) : 140
CC(Oc1ccc(Cl)cc1Cl)c1nc(-c2ccc(F)cc2)no1 (stereo not shown) : 77
Cc1cccc(CNC(=O)C(C)Oc2ccc(Cl)cc2Cl)c1 (stereo not shown) : 113
CC(Oc1ccc(Cl)cc1Cl)C(=O)NC1CCc2cc(F)ccc21 (stereo not shown) : 135

**Q:** Please give measured melting point of the following entry: Cc1ccccc1CNC(=O)C(C)Oc1ccc(Cl)cc1Cl (stereo not shown)
**A:** 128

**Q:** Please give measured melting point of the following entry: COc1ccc(CNC(=O)C(C)Oc2ccc(Cl)cc2Cl)cc1OC (stereo not shown)
**A:** 127

----------
Quick reference for melting point among some compounds
Number in °C, nothing else.

Solved entries (count: 5):
CC(Oc1ccc(Cl)cc1Cl)C(=O)NCc1ccc2c(c1)CCCN2C (centres unmarked) : 119
CC(Oc1ccc(Cl)cc1Cl)C(=O)NCc1ccc(F)cn1 (centres unmarked) : 78
COc1cc(CNC(=O)C(C)Oc2ccc(Cl)cc2Cl)cc(OC)c1OC (centres unmarked) : 119
COc1ccc(CNC(=O)C(C)Oc2ccc(F)cc2Cl)cc1 (centres unmarked) : 97
CC(Oc1ccc(Cl)cc1Cl)C(=O)NCc1ccccc1F (centres unmarked) : 121

**Q:** Please give measured melting point of the following entry: COc1ccc(CNC(=O)C(C)Oc2ncc(Cl)cc2Cl)cc1OC (centres unmarked)
**A:** 156

**Q:** Please give measured melting point of the following entry: COc1ccc(CNC(=O)C(C)Oc2ncc(Cl)cc2Cl)cc1 (centres unmarked)
**A:** 135

----------
Test system: T3SS-mediated cytotoxicity of translocated effector protein ExoU in CHO cells
Experiment: Inhibition of P. aeruginosa ExoU-dependent CHO cell killing (translocation, LDH release)
Assay type: cell-based
Conditions: Pseudomonas aeruginosa, read-out: Avg. Translocation IC50
Excerpt: Inhibition of P. aeruginosa ExoU-Dependent CHO Cell Killing. Pseudolipasin, which acts by direct inhibition of the ExoU phospholipase, was used as control inhibitor (Lee, et al, 2007, Infect. Immun., 75:1089-98).
pIC50: −log10 of the molar value.
Quick reference for pIC50 among some molecules

COc1ccc(CNC(=O)C(C)Sc2ccc(Cl)cc2Cl)cc1OC (centres unmarked) : < 4.00
CC(Oc1ccc(Cl)cc1Cl)C(=O)NCc1ccc(N(C)C)cc1 (centres unmarked) : 5.47
CC(Oc1ccc(Cl)cc1Cl)C(=O)NCc1ccc2c(c1)OCCCO2 (centres unmarked) : < 4.00
CC(Oc1ccc(Cl)cc1Cl)C(=O)NCc1ccc2c(ccn2C)c1 (centres unmarked) : < 4.00

Then there is this molecule:
**Q:** Please give measured pIC50 of the following entry: COc1ccc(OC)c(CNC(=O)C(C)Oc2ccc(Cl)cc2Cl)c1 (centres unmarked)
**A:** < 4.00

----------
Quick reference for melting point among some molecules
Number in °C, nothing else.

CCC(NC(=O)C(C)Oc1ccc(Cl)cc1Cl)c1ccc(F)cc1 (stereo not drawn) : 95
CC(Oc1ccc(Cl)cc1Cl)C(=O)NC(C(=O)O)c1ccc(F)cc1 (stereo not drawn) : 160

Then there is this molecule:
**Q:** Please give measured melting point of the following entry: COc1cc(CNC(=O)C(C)Oc2ccc(Cl)cc2Cl)cc(OC)c1 (stereo not drawn)
**A:** 111
